Hey, just so you know, these numbers are from patent US8163921B2.

Could you please report measured pIC50 for the items listed next?
ASSAYED TARGET: HCV NS3/4A protease complex, BMS strain (UniProt P27958, C1454S/C1711G, species not given)
Construct: other: HCV NS3/4A enzyme assay; class symbols; numeric values; fused on or other part: three-lysine solubilising tail at the C-terminus of NS4A; purified on Ni-NTA from the pET21b vector (His tag implied)
MEASUREMENT DESCRIPTION: FRET peptide assay to monitor HCV NS3/4A proteolytic activity (BMS strain)
Assay type: biochemical, HCV genotype 1a
MEASUREMENT PARAMETERS: read-out: IC50 Range; HCV NS3/4A enzyme assay; class symbols
pIC50: −log10 of the molar value.

Req: Endpoint output: pIC50 of `C=C[C@@H]1C[C@]1(NC(=O)[C@@H]1C[C@@H](Oc2cc(-c3ccccc3)nc3cc(OC)ccc23)CN1C(=O)[C@@H](Nc1nc(-c2ccc(OC)cc2)cs1)C(C)(C)C)C(=O)NS(=O)(=O)C1CC1` . Value?
Resp: 7.70 to 9.00

Req: Name the recorded pIC50 for `C=C[C@@H]1C[C@]1(NC(=O)[C@@H]1C[C@@H](Oc2ncc(OC)c3ccc(Cl)cc23)CN1C(=O)[C@@H](Nc1nc(-c2ccccc2OC(F)(F)F)cs1)C(C)(C)C)C(=O)NS(=O)(=O)C1CC1` .
Resp: 6.70 to 7.70

Req: Fill in the blank: the reported pIC50 of `C=C[C@@H]1C[C@]1(NC(=O)[C@@H]1C[C@@H](Oc2ncc(OC)c3ccc(Cl)cc23)CN1C(=O)[C@@H](Nc1nc(-c2ccc(C)cc2C)cs1)C(C)(C)C)C(=O)NS(=O)(=O)C1CC1` is ____.
Resp: 7.70 to 9.00

Req: Entry `C=C[C@@H]1C[C@]1(NC(=O)[C@@H]1C[C@@H](Oc2ncc(OC)c3ccc(Cl)cc23)CN1C(=O)[C@@H](Nc1nc(-c2cccc(C#N)c2)cs1)C(C)(C)C)C(=O)NS(=O)(=O)C1CC1` : reported pIC50 = ?
Resp: 7.70 to 9.00

Req: Request the reported pIC50 associated with `C=C[C@@H]1C[C@]1(NC(=O)[C@@H]1C[C@@H](Oc2ncc(OC)c3ccc(Cl)cc23)CN1C(=O)[C@@H](Nc1nc(-c2ccc(C#N)cc2)cs1)C(C)(C)C)C(=O)NS(=O)(=O)C1CC1`
Resp: 7.70 to 9.00

Req: # get_value(readout='pIC50', item= `C=C[C@@H]1C[C@]1(NC(=O)[C@@H]1C[C@@H](Oc2ncc(OC)c3ccc(Cl)cc23)CN1C(=O)[C@@H](Nc1nc(-c2ccc(OC)cc2OC)cs1)C(C)(C)C)C(=O)NS(=O)(=O)C1CC1` )
Resp: 7.70 to 9.00

Req: Consider the compound shown here: `C=C[C@@H]1C[C@]1(NC(=O)[C@@H]1C[C@@H](Oc2ncc(OC)c3ccc(Cl)cc23)CN1C(=O)[C@@H](Nc1nc(-c2cccc(F)c2)cs1)C(C)(C)C)C(=O)NS(=O)(=O)C1CC1` What is its recorded pIC50?
Resp: 7.70 to 9.00

Req: Recorded pIC50 of `C=C[C@@H]1C[C@]1(NC(=O)[C@@H]1C[C@@H](Oc2ncc(OC)c3ccc(Cl)cc23)CN1C(=O)[C@@H](Nc1nc(-c2ccsc2)cs1)C(C)(C)C)C(=O)NS(=O)(=O)C1CC1` , please.
Resp: 7.70 to 9.00

Req: What value of pIC50 has been reported for the following compound? `C=C[C@@H]1C[C@]1(NC(=O)[C@@H]1C[C@@H](Oc2ncc(OC)c3ccc(Cl)cc23)CN1C(=O)[C@@H](Nc1nc(-c2cccc(Cl)c2)cs1)C(C)(C)C)C(=O)NS(=O)(=O)C1CC1`
Resp: 7.70 to 9.00

###

ASSAYED TARGET: HCV NS3/4A protease complex, BMS strain (UniProt P27958, C1454S/C1711G, species not given)
Construct: other: HCV NS3/4A enzyme assay; class symbols; numeric values; fused on or other part: three-lysine solubilising tail at the C-terminus of NS4A; purified on Ni-NTA from the pET21b vector (His tag implied)
MEASUREMENT DESCRIPTION: FRET peptide assay to monitor HCV NS3/4A proteolytic activity (BMS strain)
Format: biochemical, HCV genotype 1a
MEASUREMENT PARAMETERS: read-out: IC50 Range; HCV NS3/4A enzyme assay; numeric values
Provide the reported pIC50 of each item.
Quick note: pIC50 means taking -log10 of the concentration in moles per liter.

Req: Returns the measured pIC50 for the input compound. Input: C=C[C@@H]1C[C@]1(NC(=O)[C@@H]1C[C@@H](Oc2ncc(OC)c3ccc(Cl)cc23)CN1C(=O)[C@@H](Nc1nc(-c2ccccc2C(F)(F)F)cs1)C(C)(C)C)C(=O)NS(=O)(=O)C1CC1 [Example 95]
Resp: 7.77

Req: Look up pIC50 for this compound: C=C[C@@H]1C[C@]1(NC(=O)[C@@H]1C[C@@H](Oc2ncc(OC)c3ccc(Cl)cc23)CN1C(=O)[C@@H](Nc1nc(-c2ccc(Cl)c(C)c2)cs1)C(C)(C)C)C(=O)NS(=O)(=O)C1CC1 [Example 27]
Resp: 8.70

Req: Entry C=C[C@@H]1C[C@]1(NC(=O)[C@@H]1C[C@@H](Oc2ncc(OC)c3ccc(Cl)cc23)CN1C(=O)[C@@H](Nc1nc(-c2cc(Cl)cc(Cl)c2F)cs1)C(C)(C)C)C(=O)NS(=O)(=O)C1CC1 [Example 53] has what pIC50?
Resp: 7.77

###

Please provide measured pIC50 for the entries that follow.
ASSAYED TARGET: HCV NS3/4A protease complex, BMS strain (UniProt P27958, C1454S/C1711G, species not given)
Construct: other: HCV NS3/4A enzyme assay; class symbols; numeric values; fused on or other part: three-lysine solubilising tail at the C-terminus of NS4A; purified on Ni-NTA from the pET21b vector (His tag implied)
MEASUREMENT DESCRIPTION: FRET peptide assay to monitor HCV NS3/4A proteolytic activity (BMS strain)
Assay type: biochemical, HCV genotype 1a
MEASUREMENT PARAMETERS: read-out: IC50 Range; HCV NS3/4A enzyme assay; class symbols
pIC50: −log10 of the molar value.

Req: What is its pIC50 for HCV NS3/4A protease complex, BMS strain (UniProt P27958, C1454S/C1711G, species not given)? Entry: `C=C[C@@H]1C[C@]1(NC(=O)[C@@H]1C[C@@H](Oc2ncc(OC)c3ccc(Cl)cc23)CN1C(=O)[C@@H](Nc1nc(-c2ccc(C(F)(F)F)cc2)cs1)C(C)(C)C)C(=O)NS(=O)(=O)C1CC1`
Resp: 7.70 to 9.00

Req: For the record `C=C[C@@H]1C[C@]1(NC(=O)[C@@H]1C[C@@H](Oc2ncc(OC)c3ccc(Cl)cc23)CN1C(=O)[C@@H](Nc1nc(-c2ccc(OC(F)F)cc2)cs1)C(C)(C)C)C(=O)NS(=O)(=O)C1CC1` , what value of pIC50 is listed for HCV NS3/4A protease complex, BMS strain (UniProt P27958, C1454S/C1711G, species not given)?
Resp: 7.70 to 9.00

Req: Find pIC50 (HCV NS3/4A protease complex, BMS strain (UniProt P27958, C1454S/C1711G, species not given)) for the entry `C=C[C@@H]1C[C@]1(NC(=O)[C@@H]1C[C@@H](Oc2ncc(OC)c3ccc(Cl)cc23)CN1C(=O)[C@@H](Nc1nc(-c2ccc(C(=O)O)cc2)cs1)C(C)(C)C)C(=O)NS(=O)(=O)C1CC1`
Resp: 7.70 to 9.00

Req: Give pIC50 (HCV NS3/4A protease complex, BMS strain (UniProt P27958, C1454S/C1711G, species not given)) of the following molecule: `C=C[C@@H]1C[C@]1(NC(=O)[C@@H]1C[C@@H](Oc2ncc(OC)c3ccc(Cl)cc23)CN1C(=O)[C@@H](Nc1nc(-c2ccc(Cl)cc2Cl)cs1)C(C)(C)C)C(=O)NS(=O)(=O)C1CC1`
Resp: 6.70 to 7.70

Req: HCV NS3/4A protease complex, BMS strain (UniProt P27958, C1454S/C1711G, species not given) / pIC50 / `C=C[C@@H]1C[C@]1(NC(=O)[C@@H]1C[C@@H](Oc2ncc(OC)c3ccc(Cl)cc23)CN1C(=O)[C@@H](Nc1nc(-c2ccccn2)cs1)C(C)(C)C)C(=O)NS(=O)(=O)C1CC1` : value?
Resp: 7.70 to 9.00

###

System: HCV replicon in HUH-7 cells
MEASUREMENT DESCRIPTION: HCV replicon FRET assay
Assay type: cell-based, HCV strain 1b
MEASUREMENT PARAMETERS: Hepatitis C virus, Huh-7; HCV replicon cell assay; numeric values; read-out: EC50 Range
Give measured pEC50 for each item. Keep answers brief.
Remember the convention: pEC50 equals -log10 of concentration in molar.

Req: What value of pEC50 has been recorded for this entry: `C=C[C@@H]1C[C@]1(NC(=O)[C@@H]1C[C@@H](Oc2ncc(OC)c3ccc(Cl)cc23)CN1C(=O)[C@@H](Nc1nc(-c2ccccc2OC)cs1)C(C)(C)C)C(=O)NS(=O)(=O)C1CC1`
Resp: 8.16

Req: Tell me the measured pEC50 of `C=C[C@@H]1C[C@]1(NC(=O)[C@@H]1C[C@@H](Oc2ncc(OC)c3ccc(Cl)cc23)CN1C(=O)[C@@H](Nc1nc(-c2ccc(OC(F)(F)F)cc2)cs1)C(C)(C)C)C(=O)NS(=O)(=O)C1CC1` , please.
Resp: 8.05

Req: # pEC50 lookup, item `C=C[C@@H]1C[C@]1(NC(=O)[C@@H]1C[C@@H](Oc2ncc(OC)c3ccc(Cl)cc23)CN1C(=O)[C@@H](Nc1nc(-c2ccc(Cl)c(C)c2)cs1)C(C)(C)C)C(=O)NS(=O)(=O)C1CC1`
Resp: 8.28

Req: pEC50 lookup needed for `C=C[C@@H]1C[C@]1(NC(=O)[C@@H]1C[C@@H](Oc2ncc(OC)c3ccc(Cl)cc23)CN1C(=O)[C@@H](Nc1nc(-c2ccccc2)cs1)C(C)(C)C)C(=O)NS(=O)(=O)C1CC1` , thanks.
Resp: 8.41

Req: Given `C=C[C@@H]1C[C@]1(NC(=O)[C@@H]1C[C@@H](Oc2ncc(OC)c3ccc(Cl)cc23)CN1C(=O)[C@@H](Nc1nc(-c2cc(Cl)cc(Cl)c2F)cs1)C(C)(C)C)C(=O)NS(=O)(=O)C1CC1` , state its recorded pEC50.
Resp: 7.69
